# experimental_target: human TLR9 (Homo sapiens (Human), UniProt Q9NR96)
# Sequence (Q9NR96 26-1032): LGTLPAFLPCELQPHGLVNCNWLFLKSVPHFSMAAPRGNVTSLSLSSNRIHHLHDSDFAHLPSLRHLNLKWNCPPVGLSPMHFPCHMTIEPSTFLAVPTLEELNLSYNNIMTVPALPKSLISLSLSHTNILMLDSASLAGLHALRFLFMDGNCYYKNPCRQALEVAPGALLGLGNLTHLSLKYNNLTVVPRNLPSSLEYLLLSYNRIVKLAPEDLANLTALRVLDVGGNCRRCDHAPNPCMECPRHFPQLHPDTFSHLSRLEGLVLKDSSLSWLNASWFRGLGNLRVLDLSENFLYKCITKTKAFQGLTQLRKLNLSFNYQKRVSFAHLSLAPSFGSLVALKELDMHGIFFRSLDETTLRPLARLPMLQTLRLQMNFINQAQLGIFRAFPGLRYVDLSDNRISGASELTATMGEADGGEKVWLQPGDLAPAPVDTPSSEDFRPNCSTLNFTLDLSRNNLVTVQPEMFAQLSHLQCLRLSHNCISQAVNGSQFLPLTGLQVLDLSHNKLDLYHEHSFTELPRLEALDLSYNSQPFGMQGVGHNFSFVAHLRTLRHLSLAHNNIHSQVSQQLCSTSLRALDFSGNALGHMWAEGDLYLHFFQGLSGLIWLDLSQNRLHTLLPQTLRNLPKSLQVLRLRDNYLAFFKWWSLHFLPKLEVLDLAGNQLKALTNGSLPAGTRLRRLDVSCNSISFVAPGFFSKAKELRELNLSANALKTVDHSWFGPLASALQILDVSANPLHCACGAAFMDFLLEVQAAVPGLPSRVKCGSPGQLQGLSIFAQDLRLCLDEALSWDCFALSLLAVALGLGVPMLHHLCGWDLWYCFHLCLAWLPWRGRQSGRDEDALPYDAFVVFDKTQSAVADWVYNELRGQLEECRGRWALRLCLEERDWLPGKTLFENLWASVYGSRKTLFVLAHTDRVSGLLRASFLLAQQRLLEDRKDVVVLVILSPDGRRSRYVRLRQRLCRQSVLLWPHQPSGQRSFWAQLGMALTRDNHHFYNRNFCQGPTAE
# test_method_notes: TLR9 inhibition reporter assay (HEK-Blue SEAP)
# measurement_context: read-out: TLR9 IC50; HEK-Blue cells overexpressing human TLR9, ODN2006 5 nM stimulation, SEAP reporter
pIC50: −log10 of the molar value.
parameter: pIC50

>  <compound>
CCN(C)C1CCC(c2ncc3[nH]c(-c4cn5ncnc5c(C)c4C)c(C(C)C)c3c2C)CC1 (stereo not shown) [Example 143]

>  <experimental_target>
human TLR9 (Homo sapiens (Human), UniProt Q9NR96)

>  <value>
6.17

$$$$
>  <compound>
COc1cc(-c2[nH]c3cnc(N4CCC(NCC5(C)COC5)CC4)c(C)c3c2C(C)C)cn2ncnc12 [Example 147]

>  <experimental_target>
human TLR9 (Homo sapiens (Human), UniProt Q9NR96)

>  <value>
5.69

$$$$
>  <compound>
COc1cc(-c2[nH]c3cnc(N4CCN(C(C)C)C[C@H]4C)c(F)c3c2C(C)C)cn2ncnc12 [Example 443]

>  <experimental_target>
human TLR9 (Homo sapiens (Human), UniProt Q9NR96)

>  <value>
5.18

$$$$
>  <compound>
COc1cc(-c2[nH]c3cnc(C4CCC(NC(C)C)CC4)cc3c2C(C)C)cn2ncnc12 (stereo not shown) [Example 315]

>  <experimental_target>
human TLR9 (Homo sapiens (Human), UniProt Q9NR96)

>  <value>
6.78

$$$$

* * *

Here, each record is paired with measured IC50 data.
# experimental_target: human TLR8 (Homo sapiens (Human), UniProt Q9NR97)
# Sequence (Q9NR97 27-1041): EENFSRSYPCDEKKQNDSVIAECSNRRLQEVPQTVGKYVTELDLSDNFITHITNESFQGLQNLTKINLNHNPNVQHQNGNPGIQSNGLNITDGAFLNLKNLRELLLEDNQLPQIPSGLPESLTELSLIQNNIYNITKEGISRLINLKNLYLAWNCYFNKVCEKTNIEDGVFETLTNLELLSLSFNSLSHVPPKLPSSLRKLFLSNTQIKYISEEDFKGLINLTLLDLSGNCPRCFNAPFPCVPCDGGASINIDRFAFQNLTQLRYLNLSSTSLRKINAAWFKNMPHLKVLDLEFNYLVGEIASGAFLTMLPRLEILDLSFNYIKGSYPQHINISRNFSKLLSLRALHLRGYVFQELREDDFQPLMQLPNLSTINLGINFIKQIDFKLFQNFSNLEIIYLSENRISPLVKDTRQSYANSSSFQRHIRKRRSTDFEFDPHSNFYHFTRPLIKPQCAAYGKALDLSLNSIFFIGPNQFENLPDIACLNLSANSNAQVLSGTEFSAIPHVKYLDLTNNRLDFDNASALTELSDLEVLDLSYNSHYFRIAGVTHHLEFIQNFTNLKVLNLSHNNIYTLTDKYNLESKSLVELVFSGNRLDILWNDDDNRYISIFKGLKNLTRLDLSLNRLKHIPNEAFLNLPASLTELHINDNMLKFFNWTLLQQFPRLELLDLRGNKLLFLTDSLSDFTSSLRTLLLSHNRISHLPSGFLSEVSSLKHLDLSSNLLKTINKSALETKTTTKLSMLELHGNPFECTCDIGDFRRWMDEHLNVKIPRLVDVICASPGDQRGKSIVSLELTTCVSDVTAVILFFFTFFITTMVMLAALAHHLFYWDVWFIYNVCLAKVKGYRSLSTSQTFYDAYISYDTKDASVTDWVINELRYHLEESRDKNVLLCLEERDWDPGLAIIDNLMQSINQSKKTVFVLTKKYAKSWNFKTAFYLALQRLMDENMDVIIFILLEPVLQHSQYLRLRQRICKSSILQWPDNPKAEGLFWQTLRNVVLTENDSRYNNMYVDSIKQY
# test_method_notes: TLR8 inhibition reporter assay (HEK-Blue SEAP);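 note: SEAP driven by IFN-β minimal promoter with five NF-κB and AP-1 sites, compounds tested 0.05 nM to 50 µM, 22 h incubation, inhibition relative to agonist plus DMSO wells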
# measurement_context: read-out: TLR8 IC50; HEK-Blue cells overexpressing human TLR8, R848 15.9 μM stimulation, SEAP reporter
parameter: IC50 (nM)

>  <molecule>
Cc1cc(-c2[nH]c3cnc(N4CCN(CC(=O)N(C)C)CC4)cc3c2C(C)C)cn2ncnc12 [Example 297]

>  <measurement_qualifier>
>

>  <value>
3120

$$$$
>  <molecule>
Cc1c(-c2[nH]c3cnc(N4CCN(CC(=O)N5CCOCC5)CC4)c(F)c3c2C(C)C)cn2ncnc2c1C [Example 423]

>  <measurement_qualifier>
=

>  <value>
0.59

$$$$
>  <molecule>
CNCC(=O)N1CCN(c2ncc3[nH]c(-c4cc(OC)c5ncnn5c4)c(C(C)C)c3c2Cl)CC1 [Example 291]

>  <measurement_qualifier>
=

>  <value>
4.9

$$$$
>  <molecule>
Cc1c(-c2[nH]c3cnc(N4CC5(CN(CC6CCC6)C5)C4)c(F)c3c2C(C)C)cn2ncnc2c1C [Example 404]

>  <measurement_qualifier>
=

>  <value>
4

$$$$
>  <molecule>
COCCN1CCN(c2ncc3[nH]c(-c4cc(OC)c5ncnn5c4)c(C(C)C)c3c2F)[C@H](C)C1 [Example 444]

>  <measurement_qualifier>
=

>  <value>
6.7

$$$$
>  <molecule>
Cc1c(-c2[nH]c3cnc(N4CCN(CC(C)(C)C)CC4)c(F)c3c2C(C)C)cn2ncnc2c1C [Example 432]

>  <measurement_qualifier>
=

>  <value>
2.7

$$$$
>  <molecule>
Cc1c(-c2[nH]c3cnc(C4CCC(NC(C)C)CC4)c(C)c3c2C(C)C)cn2ncnc2c1C (stereo not drawn) [Example 61]

>  <measurement_qualifier>
=

>  <value>
35

$$$$
>  <molecule>
COc1cc(-c2[nH]c3cnc(N4CCN(C(=O)CN(C)C)C[C@H]4C)c(F)c3c2C(C)C)cn2ncnc12 [Example 439]

>  <measurement_qualifier>
=

>  <value>
4.3

$$$$
>  <molecule>
COc1cc(-c2[nH]c3cnc(C4CCN(CC(C)(C)O)CC4)cc3c2C(C)C)cn2ncnc12 [Example 296]

>  <measurement_qualifier>
=

>  <value>
5.4

$$$$
>  <molecule>
COc1cc(-c2[nH]c3cnc(N4CCN(CCS(C)(=O)=O)CC4)cc3c2C(C)C)cn2ncnc12 [Example 290]

>  <measurement_qualifier>
=

>  <value>
7.1

$$$$
>  <molecule>
Cc1cc(-c2[nH]c3cnc(N4CCC(N(C)CC(C)(C)C)CC4)c(F)c3c2C(C)C)cn2ncnc12 [Example 196]

>  <measurement_qualifier>
=

>  <value>
1.1

$$$$
>  <molecule>
COc1cc(-c2[nH]c3cnc(N4CCC(N5CCC5)CC4)c(F)c3c2C(C)C)cn2ncnc12 [Example 253]

>  <measurement_qualifier>
=

>  <value>
0.77

$$$$
>  <molecule>
Cc1cc(-c2[nH]c3cnc(C4CCC(N5CCC5)CC4)c(F)c3c2C(C)C)cn2ncnc12 (stereo not drawn) [Example 262]

>  <measurement_qualifier>
=

>  <value>
4.2

$$$$
>  <molecule>
CCN1CCN(c2ncc3[nH]c(-c4cc(OC)c5ncnn5c4)c(C(C)C)c3c2F)CC1 [Example 389]

>  <measurement_qualifier>
=

>  <value>
0.38

$$$$
>  <molecule>
COc1cc(-c2[nH]c3cnc(N4CCC(NC(C)C)CC4)cc3c2C(C)C)cn2ncnc12 [Example 307]

>  <measurement_qualifier>
=

>  <value>
0.85

$$$$
>  <molecule>
CCN1CC2(C1)CN(c1ncc3[nH]c(-c4cn5ncnc5c(C)c4C)c(C(C)C)c3c1F)C2 [Example 408]

>  <measurement_qualifier>
=

>  <value>
61

$$$$
>  <molecule>
COc1cc(-c2[nH]c3cnc(N4CC5(CN(CC(C)C)C5)C4)c(F)c3c2C(C)C)cn2ncnc12 [Example 372]

>  <measurement_qualifier>
=

>  <value>
440

$$$$
>  <molecule>
CCN1CC2(C1)CN(c1ncc3[nH]c(-c4cc(OC)c5ncnn5c4)c(C(C)C)c3c1F)C2 [Example 379]

>  <measurement_qualifier>
=

>  <value>
2.3

$$$$
>  <molecule>
Cc1cc(-c2[nH]c3cnc(C4CCC(NCC(C)(C)C)CC4)c(F)c3c2C(C)C)cn2ncnc12 (stereo not drawn) [Example 260]

>  <measurement_qualifier>
=

>  <value>
1.7

$$$$
>  <molecule>
COc1cc(-c2[nH]c3cnc(N4CCC(N(C)CC(F)F)CC4)c(F)c3c2C(C)C)cn2ncnc12 [Example 189]

>  <measurement_qualifier>
=

>  <value>
16

$$$$
>  <molecule>
Cc1cc(-c2[nH]c3cnc(C4CCC(NCC(C)(C)C)CC4)c(F)c3c2C(C)C)cn2ncnc12 (stereo not drawn) [Example 48]

>  <measurement_qualifier>
=

>  <value>
13

$$$$
>  <molecule>
Cc1c(-c2[nH]c3cnc(C4CCC(NCC(C)(C)C)CC4)cc3c2C(C)C)cn2ncnc2c1C (stereo not drawn) [Example 351]

>  <measurement_qualifier>
=

>  <value>
5.4

$$$$
>  <molecule>
Cc1c(-c2[nH]c3cnc(N4CC5(CN(CC6(C)COC6)C5)C4)c(F)c3c2C(C)C)cn2ncnc2c1C [Example 405]

>  <measurement_qualifier>
=

>  <value>
15

$$$$
>  <molecule>
Cc1c(-c2[nH]c3cnc(N4CC5(CN(C(=O)CN6CCOCC6)C5)C4)c(F)c3c2C(C)C)cn2ncnc2c1C [Example 399]

>  <measurement_qualifier>
=

>  <value>
4.1

$$$$
>  <molecule>
COc1cc(-c2[nH]c3cnc(C4CCN(C(C)C)CC4)c(C)c3c2C(C)C)cn2ncnc12 [Example 33]

>  <measurement_qualifier>
=

>  <value>
6.9

$$$$
>  <molecule>
COc1cc(-c2[nH]c3cnc(C4CCC(NCC(C)(C)F)CC4)c(C)c3c2C(C)C)cn2ncnc12 (stereo not drawn) [Example 244]

>  <measurement_qualifier>
=

>  <value>
16

$$$$
>  <molecule>
COc1cc(-c2[nH]c3cnc(N4CCC(N5CCOCC5)CC4)c(C)c3c2C(C)C)cn2ncnc12 [Example 278]

>  <measurement_qualifier>
=

>  <value>
0.58

$$$$

* * *

# experimental_target: human TLR9 (Homo sapiens (Human), UniProt Q9NR96)
# test_method_notes: TLR9 inhibition reporter assay (HEK-Blue SEAP);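 note: SEAP driven by IFN-β minimal promoter carrying five NF-κB and AP-1 sites, 22 h at 37 °C, compounds 0.05 nM–50 µM, inhibition scaled between agonist-plus-DMSO and reference-inhibitor wells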
# measurement_context: read-out: TLR9 IC50; HEK-Blue cells overexpressing human TLR9, ODN2006 5 nM stimulation, SEAP reporter
# IC50 values compiled below

>  <compound>
Cc1c(-c2[nH]c3cnc(N4CC5(CN(CC#N)C5)C4)c(F)c3c2C(C)C)cn2ncnc2c1C

>  <IC50 / µM>
43.2

$$$$
>  <compound>
CCN(C)C1CCN(c2ncc3[nH]c(-c4cc(C)c5ncnn5c4)c(C(C)C)c3c2C)CC1

>  <IC50 / µM>
2.21

$$$$
>  <compound>
CNC(=O)CN1CC2(C1)CN(c1ncc3[nH]c(-c4cn5ncnc5c(C)c4C)c(C(C)C)c3c1F)C2

>  <IC50 / µM>
17.5

$$$$
>  <compound>
Cc1c(N2CCC(NCC3(C)COC3)CC2)ncc2[nH]c(-c3cc(C)c4ncnn4c3)c(C(C)C)c12

>  <IC50 / µM>
2.29

$$$$
>  <compound>
Cc1c(-c2[nH]c3cnc(C4CCC(NC5COC5)CC4)c(F)c3c2C(C)C)cn2ncnc2c1C (stereo not shown) [Example 267]

>  <IC50 / µM>
16.7

$$$$
>  <compound>
COc1cc(-c2[nH]c3cnc(C4CCC(NCC(C)(C)C)C4)cc3c2C(C)C)cn2ncnc12 (stereo not shown) [Example 60]

>  <IC50 / µM>
0.502

$$$$
>  <compound>
CNC(=O)CN(C)C1CCC(c2ncc3[nH]c(-c4cc(OC)c5ncnn5c4)c(C(C)C)c3c2F)CC1 (stereo not shown)

>  <IC50 / µM>
11.4

$$$$
>  <compound>
CNCC(=O)N1CCN(c2ncc3[nH]c(-c4cc(OC)c5ncnn5c4)c(C(C)C)c3c2C)CC1

>  <IC50 / µM>
1.2

$$$$
>  <compound>
COc1cc(-c2[nH]c3cnc(N4CCN(C(=O)CN(C)C)CC4)c(C)c3c2C(C)C)cn2ncnc12

>  <IC50 / µM>
1.23

$$$$
>  <compound>
COc1cc(-c2[nH]c3cnc(N4CCN(CCS(C)(=O)=O)CC4)c(C)c3c2C(C)C)cn2ncnc12

>  <IC50 / µM>
26.5

$$$$
>  <compound>
COc1cc(-c2[nH]c3cnc(N4CCN(C(=O)CN(C)C)C[C@H]4C)c(F)c3c2C(C)C)cn2ncnc12

>  <IC50 / µM>
11.2

$$$$
>  <compound>
Cc1cc(-c2[nH]c3cnc(C4CCC(NC(C)C)CC4)c(F)c3c2C(C)C)cn2ncnc12 (stereo not shown)

>  <IC50 / µM>
1.15

$$$$
>  <compound>
Cc1cc(-c2[nH]c3cnc(C4CCC(NCC(C)(C)C)CC4)c(F)c3c2C(C)C)cn2ncnc12 (stereo not shown) [Example 48]

>  <IC50 / µM>
9.53

$$$$
